- system under test: human IBAT (Homo sapiens)
- Construct: expressed in transfected cells; host or cells: Baby hamster kidney (BHK) cells, clone H14
- Sequence (Q12908 whole entry): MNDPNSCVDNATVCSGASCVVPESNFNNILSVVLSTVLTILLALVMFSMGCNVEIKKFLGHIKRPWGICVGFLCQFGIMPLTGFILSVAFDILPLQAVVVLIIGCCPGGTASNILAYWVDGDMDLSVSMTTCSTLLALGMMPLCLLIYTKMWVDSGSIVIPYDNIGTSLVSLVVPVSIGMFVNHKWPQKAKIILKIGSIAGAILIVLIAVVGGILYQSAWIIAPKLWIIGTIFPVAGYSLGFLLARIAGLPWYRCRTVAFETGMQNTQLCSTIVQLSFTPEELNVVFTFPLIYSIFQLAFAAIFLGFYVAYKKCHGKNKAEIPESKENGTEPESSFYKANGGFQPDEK
- assay: In vitro assay of IBAT-mediated uptake of [14C]-taurocholate (TC) in H14 cells
- Format: cell-based
- measurement context: read-out: Human TC IC50
- Description: In Vitro Assay of Compounds that Inhibit IBAT-Mediated Uptake of [^14C]-Taurocholate (TC) in H14 Cells Baby hamster kidney cells (BHK) transfected with the cDNA of human IBAT (H14 cells) are seeded at 60,000 cells/well in 96 well Top-Count tissue culture plates for assays run within in 24 hours of seeding, 30,000 cells/well for assays run within 48 hours, and 10,000 cells/well for assays run within 72 hours. […]
measure name: pIC50
Numbers only, as −log10 of the molar value.

Worked set:
compound	result
CCCCC1(CCCC)CS(=O)(=O)c2ccc(N(C)C)cc2C(c2ccc(OCCOCC[N+]3(C)CC[N+](C)(C)CC3)c(F)c2)C1O (stereo not shown)	7.62
CCCCC1(CCCC)CS(=O)(=O)c2ccc(N(C)C)cc2C(c2ccc(F)c(Cl)c2)C1O (stereo not shown)	7.74
CCCCC1(CC)CS(=O)(=O)c2ccc(Br)cc2C(c2cccc(OC)c2)C1O (single isomer, unassigned) [Example 271]	7.15
CCCCC1(CCCC)CS(=O)(=O)c2ccc(N(C)C)cc2C(c2ccc(C(=O)O)cc2)C1O (stereo not shown)	6.49
CCCCC1(CCCC)CS(=O)(=O)c2ccc(N(C)C)cc2C(c2cccc(C[N+](C)(C)CC[N+](C)(C)C)c2)C1O (stereo not shown)	6.16

Required: pIC50, one value per compound below.
1. CCCCC1(CCCC)CS(=O)(=O)c2cc(Br)c(NC)cc2C(c2ccccc2)C1O (stereo not shown)
2. CCCCC1(CC)CS(=O)(=O)c2ccc(N)cc2C(c2ccccc2)C1O (single isomer, unassigned) [Example 121]
3. CCCCC1(CCCC)CS(=O)(=O)c2ccc(N(C)C)cc2C(c2cccc3ccccc23)C1O (stereo not shown)
4. CCCCC1(CCCC)CS(=O)(=O)c2ccc(N(C)C)cc2C(c2cccc(OCCOCCOCC[N+]3(C)CCC(C(=O)c4ccccc4)CC3)c2)C1O (stereo not shown)
5. CCCCC1(CCCC)CS(=O)(=O)c2ccc(N(C)C)cc2C(c2ccc(OCc3ccccn3)c(F)c2)C1O (stereo not shown)
6. CCCCC1(CCCC)CS(=O)(=O)c2ccc(N(C)C)cc2C(c2cccc(OCCOCCOCC[n+]3nnn4c3CCCCC4)c2)C1O (stereo not shown)
7. CCCCC1(CCCC)CS(=O)(=O)c2ccc(N(C)C)cc2C(c2cccc(OCCOCCOCC[n+]3cccn3-c3ccccc3)c2)C1O (stereo not shown)

1. 6.55
2. 7.17
3. 6.21
4. 8.70
5. 8.10
6. 8.52
7. 8.40
